# TARGET_UNDER_TEST: G/T mismatch-specific thymine DNA glycosylase (Homo sapiens)
# CONDITION_INFO: Compound Concentration 10.0 uM, Hit No
# Description: Inhibition of TDG by quantifying inhibition of TDG-mediated cleavage and dissociation of quenched duplex DNA oligonucleotides, measured as fluorescence at 594 nm. To generate a functional strand incision and increase turn-over this assay is coupled to APE1.
A collection of compounds and their measured inhibition
// note: answer is a bare numeric in %

COMPOUND	TARGET_UNDER_TEST	UNIT_ABBREVIATION	TEST_VALUE
CC(C)(O)c1cn(-c2ccc(-c3cccc(S(C)(=O)=O)c3)cc2)c(C(C)(C)c2ccccc2Cl)n1	G/T mismatch-specific thymine DNA glycosylase (Homo sapiens)	%	57.4
CCCCCCCN(CCc1ccc(SC(C)(C)C(=O)O)cc1)C(=O)Nc1ccc(F)cc1F	G/T mismatch-specific thymine DNA glycosylase (Homo sapiens)	%	50.5
CC(=O)N1CCC(c2ccc(C(=O)NC3=NCCN3)cc2C(F)(F)F)CC1	G/T mismatch-specific thymine DNA glycosylase (Homo sapiens)	%	48.7
CCCCC[C@H](O)/C=C/[C@H]1[C@H](O)CC(=O)[C@@H]1CCCCCCC(=O)O	G/T mismatch-specific thymine DNA glycosylase (Homo sapiens)	%	19.5
CC[C@H](Nc1c(C#N)c(-c2ccc(-c3cccc(C)c3F)cc2)nc2cnccc12)C(=O)O	G/T mismatch-specific thymine DNA glycosylase (Homo sapiens)	%	51.7

For the compound shown here, COc1cccc([C@H](O)C2CCN(CCc3ccc(F)cc3)CC2)c1OC , give the reported inhibition.
22.3

What do you get for NCC(O)c1ccc(O)cc1 (centres undefined) ?
14.3

Next record, please: O=[N+]([O-])c1ccc2nc(COCc3nc4ccc([N+](=O)[O-])cc4[nH]3)[nH]c2c1
27.1

Quick one: Cc1cc(C)cc(C(=O)N(C)[C@H](Cc2ccc(-c3ccccc3)cc2)C(=O)N[C@@H](Cc2c[nH]c3ccccc23)C(=O)O)c1
48.4

###

Measured inhibition of individual entries
# TARGET_UNDER_TEST: G/T mismatch-specific thymine DNA glycosylase (Homo sapiens) (UniProt Q13569);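 note: human TDG cleavage of quenched duplex DNA oligonucleotides coupled to APE1, strand release read as fluorescence at 594 nm, inhibition of TDG activity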
# Sequence (Q13569 whole entry): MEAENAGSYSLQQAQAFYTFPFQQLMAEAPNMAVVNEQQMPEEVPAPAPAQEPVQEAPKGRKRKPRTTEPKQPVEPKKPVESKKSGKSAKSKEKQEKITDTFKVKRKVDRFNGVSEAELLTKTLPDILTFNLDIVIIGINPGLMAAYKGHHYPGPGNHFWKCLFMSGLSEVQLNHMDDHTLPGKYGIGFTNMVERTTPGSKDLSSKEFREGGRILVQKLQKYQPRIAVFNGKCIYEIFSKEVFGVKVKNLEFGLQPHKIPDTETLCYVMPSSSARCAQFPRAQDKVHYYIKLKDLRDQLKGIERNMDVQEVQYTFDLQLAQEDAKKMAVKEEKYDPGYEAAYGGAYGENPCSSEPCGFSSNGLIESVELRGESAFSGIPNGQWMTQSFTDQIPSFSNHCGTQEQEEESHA
# CONDITION_INFO: Compound Concentration 10.0 uM, Hit No
Numeric only. Scale: %

Worked cases, inhibition given:
SMI	TARGET_UNDER_TEST	inhibition (%)
COc1c(Nc2ccc(S(C)(=O)=O)nc2C)ncnc1OC1CCN(C(=O)OC(C)C)CC1	G/T mismatch-specific thymine DNA glycosylase (Homo sapiens) (UniProt Q13569)	-5.57
Cc1cnc(CNCC2(F)CCN(C(=O)c3ccc(F)c(Cl)c3)CC2)nc1	G/T mismatch-specific thymine DNA glycosylase (Homo sapiens) (UniProt Q13569)	6.93
Cc1cc(NC(=O)c2cccc(S(F)(F)(F)(F)F)c2)cc(-n2ccn3nc(-c4cccnc4)cc23)c1	G/T mismatch-specific thymine DNA glycosylase (Homo sapiens) (UniProt Q13569)	17.7
CN(CCOc1ccc(C[C@H](Nc2ccccc2C(=O)c2ccccc2)C(=O)O)cc1)c1ccccn1	G/T mismatch-specific thymine DNA glycosylase (Homo sapiens) (UniProt Q13569)	30.8
O=C(O)c1cc(-c2ccc(C3CCNCC3)cc2)c2ccc(-c3ccc(C(F)(F)F)cc3)cc2c1	G/T mismatch-specific thymine DNA glycosylase (Homo sapiens) (UniProt Q13569)	20.1

# get_value(readout='inhibition', item= COCC(=O)NC/C=C/c1ccc2ncnc(Nc3ccc(Oc4ccc(C)nc4)c(C)c3)c2c1 )
11.2

Also check CC1(C)CCC[C@]2(C)[C@@H](C=O)C(C=O)=CC[C@@H]12
49

Proceed to N#Cc1c(Oc2cccc(OS(=O)(=O)CCCC(F)(F)F)c2)cccc1C(F)(F)F
-4.05

Next: CCc1nnc(NS(=O)(=O)c2ccc(NC(=S)NC(=O)/C=C/c3ccc(F)cc3)cc2)s1
49.8

Values were extracted from ChEMBL document CHEMBL5665443.
